# credit: patent US20210315831A1

# Test details: in vivo
# Reported conditions: female, BALB/c, mouse, plasma, iv, 10 mg/kg
Parameter measured: MRT

# input molecule: COc1cc([C@@H]2c3cc4c(cc3[C@@H](O[C@@H]3O[C@@H]5CO[C@@H](C)O[C@H]5[C@H](O)[C@H]3O)[C@H]3COC(=O)[C@H]23)OCO4)cc(OC)c1O [Free Etoposide, etoposide] ; wanted: its MRT
1.89 min

====

# Test details: in vivo
# Reported conditions: female, BALB/c, mouse, plasma, iv, 10 mg/kg
Parameter measured: half-life (min)
Write the value in min as a bare number.

# input compound: COc1cc([C@@H]2c3cc4c(cc3[C@@H](O[C@@H]3O[C@@H]5CO[C@@H](C)O[C@H]5[C@H](O)[C@H]3O)[C@H]3COC(=O)[C@H]23)OCO4)cc(OC)c1O [Free Etoposide, etoposide] ; wanted: its half-life
4.89
